For each entry below, report its Jagged1/293T X Geo mean value.
- target.or.system: T1, human Jagged1 (human, UniProt P78504 34-1218)
- T1 construct: whole, on cells
- T1 sequence (P78504 34-1218): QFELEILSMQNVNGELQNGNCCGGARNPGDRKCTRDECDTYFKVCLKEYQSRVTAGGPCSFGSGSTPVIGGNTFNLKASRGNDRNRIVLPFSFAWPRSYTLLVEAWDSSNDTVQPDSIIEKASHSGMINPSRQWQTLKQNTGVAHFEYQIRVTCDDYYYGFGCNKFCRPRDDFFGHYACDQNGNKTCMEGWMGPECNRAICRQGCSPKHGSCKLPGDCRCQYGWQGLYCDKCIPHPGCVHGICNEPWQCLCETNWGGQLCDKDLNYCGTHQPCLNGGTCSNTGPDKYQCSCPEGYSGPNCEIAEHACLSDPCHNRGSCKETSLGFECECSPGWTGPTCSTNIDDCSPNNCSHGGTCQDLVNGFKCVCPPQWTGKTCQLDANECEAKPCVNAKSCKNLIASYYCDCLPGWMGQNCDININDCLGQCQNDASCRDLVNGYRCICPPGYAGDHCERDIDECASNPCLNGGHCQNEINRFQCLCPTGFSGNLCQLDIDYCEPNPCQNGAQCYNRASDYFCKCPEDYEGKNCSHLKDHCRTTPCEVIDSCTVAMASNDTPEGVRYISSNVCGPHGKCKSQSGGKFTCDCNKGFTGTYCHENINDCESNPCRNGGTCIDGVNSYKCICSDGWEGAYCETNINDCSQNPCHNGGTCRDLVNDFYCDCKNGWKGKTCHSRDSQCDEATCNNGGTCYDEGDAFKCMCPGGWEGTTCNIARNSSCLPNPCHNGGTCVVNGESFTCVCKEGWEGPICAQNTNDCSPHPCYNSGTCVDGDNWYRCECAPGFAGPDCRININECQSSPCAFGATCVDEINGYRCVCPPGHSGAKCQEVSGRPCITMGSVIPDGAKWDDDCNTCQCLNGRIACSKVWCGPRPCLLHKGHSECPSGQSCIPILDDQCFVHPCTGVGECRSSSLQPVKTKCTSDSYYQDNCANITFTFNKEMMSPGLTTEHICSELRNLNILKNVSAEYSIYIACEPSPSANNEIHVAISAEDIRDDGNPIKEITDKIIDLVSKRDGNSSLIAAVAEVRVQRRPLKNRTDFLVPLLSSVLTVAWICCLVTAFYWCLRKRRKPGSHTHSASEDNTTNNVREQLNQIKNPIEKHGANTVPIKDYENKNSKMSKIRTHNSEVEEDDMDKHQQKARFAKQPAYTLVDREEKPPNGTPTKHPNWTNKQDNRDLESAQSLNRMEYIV
- experiment.summary: FACS, 5 µg/ml, 293T cells with human Jagged1
Answer with the value's number alone.

Request: Which Jagged1/293T X Geo mean value is on record for 20G8 (antibody, IgG4, V domains shown, Fully human; also used where no isotype is printed) VH: QVQLVQSGAEVKKPGASVKVSCKASGYTFTSYGISWVRQAPGQGLEWMGWISVYNGNTNYAQKLQGRVTMTTDTSTSTAYMEVRSLRSDDTAVYYCARDRVPRIPRTTEAFDIWGRGTMVTVCS VL: QSVLTQPPSASGTPGQRVTISCSGSSSNIGSYYVYWYQQLPGTAPKLLIYRDNQRPSGVPDRFSGSKSGTSASLAIRGLRSDDEADYYCAAWDDSLSGHWVFGGGTKLTVL ?
Result: 16

Request: Which Jagged1/293T X Geo mean value is on record for 3A7 (antibody, IgG4, V domains shown, Fully human; also used where no isotype is printed) VH: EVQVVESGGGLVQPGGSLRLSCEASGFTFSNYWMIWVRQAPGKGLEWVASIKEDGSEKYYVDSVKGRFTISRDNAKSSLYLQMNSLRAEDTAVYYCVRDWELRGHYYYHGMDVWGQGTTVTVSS VL: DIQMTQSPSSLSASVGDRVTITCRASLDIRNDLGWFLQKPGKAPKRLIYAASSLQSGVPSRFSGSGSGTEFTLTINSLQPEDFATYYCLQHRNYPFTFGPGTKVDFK ?
Result: 16.4

Request: Which Jagged1/293T X Geo mean value is on record for 1D4 (antibody, IgG4, V domains shown, Fully human XenoMouse antibody; also used where no isotype is printed) VH: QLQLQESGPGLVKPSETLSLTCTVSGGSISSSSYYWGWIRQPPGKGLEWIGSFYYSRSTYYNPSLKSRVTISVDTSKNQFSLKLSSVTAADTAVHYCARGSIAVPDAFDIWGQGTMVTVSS VL: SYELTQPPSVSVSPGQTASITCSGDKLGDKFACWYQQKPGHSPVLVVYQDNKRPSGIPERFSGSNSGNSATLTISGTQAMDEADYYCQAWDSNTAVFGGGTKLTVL ?
Result: 16.8
